Source: patent US20250051344A1

A collection of molecules and their measured Fold Selectivity SMARCA4/2
- ASSAYED_TARGET: SMARCA2 (Homo sapiens, UniProt P51531)
- Construct: endogenous in cells
- Sequence (P51531 whole entry, species assumed): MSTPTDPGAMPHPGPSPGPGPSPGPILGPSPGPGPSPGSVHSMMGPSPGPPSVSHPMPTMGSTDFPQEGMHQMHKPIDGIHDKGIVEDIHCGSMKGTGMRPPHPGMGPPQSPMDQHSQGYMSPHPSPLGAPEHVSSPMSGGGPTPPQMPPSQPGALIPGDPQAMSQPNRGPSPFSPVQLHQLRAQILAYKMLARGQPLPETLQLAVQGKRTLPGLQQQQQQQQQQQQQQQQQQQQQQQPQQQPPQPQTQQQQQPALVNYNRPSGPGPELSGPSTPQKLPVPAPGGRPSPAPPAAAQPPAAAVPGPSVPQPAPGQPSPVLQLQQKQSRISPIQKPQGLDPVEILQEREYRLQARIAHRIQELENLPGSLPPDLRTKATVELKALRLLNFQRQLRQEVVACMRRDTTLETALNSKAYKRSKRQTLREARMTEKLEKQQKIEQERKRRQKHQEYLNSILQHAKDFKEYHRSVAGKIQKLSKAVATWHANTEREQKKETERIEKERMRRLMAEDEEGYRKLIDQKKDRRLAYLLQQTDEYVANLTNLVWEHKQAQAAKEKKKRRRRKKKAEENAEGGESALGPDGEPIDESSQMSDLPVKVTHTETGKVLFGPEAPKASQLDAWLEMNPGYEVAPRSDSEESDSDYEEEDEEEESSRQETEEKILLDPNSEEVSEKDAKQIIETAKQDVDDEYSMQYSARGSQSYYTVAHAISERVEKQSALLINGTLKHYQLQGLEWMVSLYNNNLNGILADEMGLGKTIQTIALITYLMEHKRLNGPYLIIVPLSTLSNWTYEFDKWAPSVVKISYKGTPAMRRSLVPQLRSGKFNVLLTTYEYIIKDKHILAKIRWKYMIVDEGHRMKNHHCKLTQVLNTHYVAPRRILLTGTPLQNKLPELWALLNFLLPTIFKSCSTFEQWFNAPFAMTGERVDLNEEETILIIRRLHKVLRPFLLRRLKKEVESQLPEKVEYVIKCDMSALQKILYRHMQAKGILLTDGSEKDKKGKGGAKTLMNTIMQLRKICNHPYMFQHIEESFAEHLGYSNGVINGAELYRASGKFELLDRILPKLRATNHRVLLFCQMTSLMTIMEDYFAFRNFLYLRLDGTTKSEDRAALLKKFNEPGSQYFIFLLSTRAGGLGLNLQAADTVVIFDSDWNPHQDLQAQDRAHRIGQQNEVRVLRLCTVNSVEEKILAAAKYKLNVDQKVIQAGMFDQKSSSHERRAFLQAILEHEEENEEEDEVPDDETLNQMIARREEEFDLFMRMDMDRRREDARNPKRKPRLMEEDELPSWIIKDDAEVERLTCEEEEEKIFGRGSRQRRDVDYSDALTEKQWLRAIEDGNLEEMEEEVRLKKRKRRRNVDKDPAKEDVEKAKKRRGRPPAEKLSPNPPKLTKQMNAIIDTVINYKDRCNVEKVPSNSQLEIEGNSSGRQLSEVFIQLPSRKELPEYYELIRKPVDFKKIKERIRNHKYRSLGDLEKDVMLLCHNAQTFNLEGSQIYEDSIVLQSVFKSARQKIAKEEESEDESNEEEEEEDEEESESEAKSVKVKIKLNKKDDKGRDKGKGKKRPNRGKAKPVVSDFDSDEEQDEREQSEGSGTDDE
- TEST_DETAILS: SMARCA2 Cellular Degradation Assay (Western blot analysis on Jess platform)
- Assay type: cell-based
- TEST_PARAMETERS: ratio DC50 SMARCA4 / DC50 SMARCA2
Please give the numeric answer without any surrounding text.

Here's what some known entries look like.
MOLECULE	NUMBER
O=C1CC[C@H](NC(=O)c2ccc(N3CCC(CN4CCC(NC(=O)C5(c6ccccc6)CCN(c6cnnc(-c7ccccc7O)c6)CC5)CC4)CC3)nc2)C(=O)N1 [Example 156]	260
CC(C)c1cc(C2(C(=O)N(C)C3CCN(CC4CCN(c5ccc(C6CCC(=O)NC6=O)cc5)CC4)CC3)CCN(c3cnnc(-c4ccccc4O)c3)CC2)no1 (racemic) [Example 98]	10
CN(C(=O)C1(c2cc3ccccn3n2)CCN(c2cnnc(-c3ccccc3O)c2)CC1)C1CCN(CCC2CCN(c3ccc(C4CCC(=O)NC4=O)cc3)CC2)CC1 (racemic) [Example 77]	2427

So what's the measured Fold Selectivity SMARCA4/2 for this one? CCCN(C(=O)C1(c2ccccc2)CCN(c2cnnc(-c3ccccc3O)c2)CC1)C1CCN(CCC2CCN(c3ccc([C@H]4CCC(=O)NC4=O)cc3)CC2)CC1 [Example 100]
34

Similarly, COC1(C(=O)N(C)C2CCN(C(=O)CN3CCC(c4ccc([C@@H]5CCC(=O)NC5=O)cc4)CC3)CC2)CCN(c2cnnc(-c3ccccc3O)c2)CC1 (racemic) [Example 111] ?
19

Now give it for O=C1CC[C@@H](c2ccc(N3CCC(CN4CCCC(CNC(=O)C5(c6ccccc6)CCN(c6cnnc(-c7ccccc7O)c6)CC5)C4)CC3)cc2)C(=O)N1 (stereo partly drawn) [Example 10] too.
124.82

Then this molecule: O=C1CC[C@H](c2ccc(N3CCC(CCN4CCC[C@@H]4C(=O)NCC4(c5ccccc5)CCN(c5cnnc(-c6ccccc6O)c5)CC4)CC3)cc2)C(=O)N1 (racemic) [Example 107]
242

Now the molecule O=C1CC[C@H](c2ccc(N3CCC(CCN4CCC(S(=O)(=O)NCC5(c6ccccc6)CCN(c6cnnc(-c7ccccc7O)c6)CC5)CC4)CC3)cc2)C(=O)N1 (racemic) [Example 118]
4

Here is the next molecule: Cc1cc(C2(C(=O)N(C)C3CCN(CCC4CCN(c5ccc(C6CCC(=O)NC6=O)cc5)CC4)CC3)CCN(c3cnnc(-c4ccccc4O)c3)CC2)on1 (racemic) [Example 88]
1289

Would you kindly repeat that for CN(C(=O)C1(c2ccccc2)CCN(c2cnnc(-c3ccccc3O)c2)CC1)C1CCN(CCC2CCN(c3ccc(C4CCC(=O)NC4=O)cn3)CC2)CC1 (racemic) [Example 69] ?
1605

Also check O=C1CC[C@H](c2ccc(N3CCC(CN4CCCC4C4CCCCN4C(=O)C4(c5ccccc5)CCN(c5cnnc(-c6ccccc6O)c5)CC4)CC3)cc2)C(=O)N1 (stereo partly drawn) [Example 42]
1

Try the molecule Cc1ccccc1C1(C(=O)N2CC3(CN(CC4CCN(c5ccc(C6CCC(=O)NC6=O)cc5)CC4)C3)C2)CCN(c2cnnc(-c3ccccc3O)c2)CC1 (racemic) [Example 33]
6.16

Let us now turn to COc1ccccc1C1(C(=O)N2CC3(C2)CN(C2COC4(CCN(c5ccc([C@H]6CCC(=O)NC6=O)cc5)CC4)C2)C3)CCN(c2cnnc(-c3ccccc3O)c2)CC1 (mixture of isomers) [Example 106]
7

Now the same for O=C1CC[C@H](c2ccc(N3CCC(CCN4CCC(OCC(F)(F)F)(C(=O)NCC5(c6ccccc6)CCN(c6cnnc(-c7ccccc7O)c6)CC5)CC4)CC3)cc2)C(=O)N1 (racemic) [Example 105]
12

* * *

- ASSAYED_TARGET: SMARCA2 (Homo sapiens, UniProt P51531)
- Construct: endogenous in cells
- TEST_DETAILS: SMARCA2 Cellular Degradation Assay (Western blot analysis on Jess platform)
- Type: cell-based
- TEST_PARAMETERS: cellular degradation
METRIC: Dmax (%)
Numeric answer only, unit % assumed.

COMPOUND	UNIT_NAME	Dmax
N#CC1(CN2CCN(c3ccc([C@@H]4CCC(=O)NC4=O)cc3)CC2)CC12CCN(C(=O)C1(c3ccccc3)CCN(c3cnnc(-c4ccccc4O)c3)CC1)CC2 (mixture of isomers)	%	69.5
CN(C(=O)C1(c2ccccc2)CCN(c2cnnc(-c3ccccc3O)c2)CC1)C1CCN(CCC2CCN(c3ccc(C4CCC(=O)NC4=O)cn3)CC2)CC1 (racemic)	%	85.3
O=C1CCC(c2ccc(N3CCN(C(=O)C4CC45CCN(C(=O)C4(c6ccccc6)CCN(c6cnnc(-c7ccccc7O)c6)CC4)C5)CC3)cc2)C(=O)N1 (racemic)	%	5.79
O=C1CC[C@H](c2ccc(C3CCN(CC(=O)N4CCC(S(=O)(=O)NCC5(c6ccccc6)CCN(c6cnnc(-c7ccccc7O)c6)CC5)CC4)CC3)cc2)C(=O)N1 (racemic)	%	82.7

Given the compound CN(C(=O)C1(Oc2ccn(C)n2)CCN(c2cnnc(-c3ccccc3O)c2)CC1)C1CCN(C(=O)CN2CCC(c3ccc([C@@H]4CCC(=O)NC4=O)cc3)CC2)CC1 (racemic) , what is its reported Dmax?
80.8

* * *

Reported DC50 values are given for each entry in this list.
- ASSAYED_TARGET: SMARCA4 (Homo sapiens, UniProt P51532)
- Construct: endogenous in cells
- Sequence (P51532 whole entry, species assumed): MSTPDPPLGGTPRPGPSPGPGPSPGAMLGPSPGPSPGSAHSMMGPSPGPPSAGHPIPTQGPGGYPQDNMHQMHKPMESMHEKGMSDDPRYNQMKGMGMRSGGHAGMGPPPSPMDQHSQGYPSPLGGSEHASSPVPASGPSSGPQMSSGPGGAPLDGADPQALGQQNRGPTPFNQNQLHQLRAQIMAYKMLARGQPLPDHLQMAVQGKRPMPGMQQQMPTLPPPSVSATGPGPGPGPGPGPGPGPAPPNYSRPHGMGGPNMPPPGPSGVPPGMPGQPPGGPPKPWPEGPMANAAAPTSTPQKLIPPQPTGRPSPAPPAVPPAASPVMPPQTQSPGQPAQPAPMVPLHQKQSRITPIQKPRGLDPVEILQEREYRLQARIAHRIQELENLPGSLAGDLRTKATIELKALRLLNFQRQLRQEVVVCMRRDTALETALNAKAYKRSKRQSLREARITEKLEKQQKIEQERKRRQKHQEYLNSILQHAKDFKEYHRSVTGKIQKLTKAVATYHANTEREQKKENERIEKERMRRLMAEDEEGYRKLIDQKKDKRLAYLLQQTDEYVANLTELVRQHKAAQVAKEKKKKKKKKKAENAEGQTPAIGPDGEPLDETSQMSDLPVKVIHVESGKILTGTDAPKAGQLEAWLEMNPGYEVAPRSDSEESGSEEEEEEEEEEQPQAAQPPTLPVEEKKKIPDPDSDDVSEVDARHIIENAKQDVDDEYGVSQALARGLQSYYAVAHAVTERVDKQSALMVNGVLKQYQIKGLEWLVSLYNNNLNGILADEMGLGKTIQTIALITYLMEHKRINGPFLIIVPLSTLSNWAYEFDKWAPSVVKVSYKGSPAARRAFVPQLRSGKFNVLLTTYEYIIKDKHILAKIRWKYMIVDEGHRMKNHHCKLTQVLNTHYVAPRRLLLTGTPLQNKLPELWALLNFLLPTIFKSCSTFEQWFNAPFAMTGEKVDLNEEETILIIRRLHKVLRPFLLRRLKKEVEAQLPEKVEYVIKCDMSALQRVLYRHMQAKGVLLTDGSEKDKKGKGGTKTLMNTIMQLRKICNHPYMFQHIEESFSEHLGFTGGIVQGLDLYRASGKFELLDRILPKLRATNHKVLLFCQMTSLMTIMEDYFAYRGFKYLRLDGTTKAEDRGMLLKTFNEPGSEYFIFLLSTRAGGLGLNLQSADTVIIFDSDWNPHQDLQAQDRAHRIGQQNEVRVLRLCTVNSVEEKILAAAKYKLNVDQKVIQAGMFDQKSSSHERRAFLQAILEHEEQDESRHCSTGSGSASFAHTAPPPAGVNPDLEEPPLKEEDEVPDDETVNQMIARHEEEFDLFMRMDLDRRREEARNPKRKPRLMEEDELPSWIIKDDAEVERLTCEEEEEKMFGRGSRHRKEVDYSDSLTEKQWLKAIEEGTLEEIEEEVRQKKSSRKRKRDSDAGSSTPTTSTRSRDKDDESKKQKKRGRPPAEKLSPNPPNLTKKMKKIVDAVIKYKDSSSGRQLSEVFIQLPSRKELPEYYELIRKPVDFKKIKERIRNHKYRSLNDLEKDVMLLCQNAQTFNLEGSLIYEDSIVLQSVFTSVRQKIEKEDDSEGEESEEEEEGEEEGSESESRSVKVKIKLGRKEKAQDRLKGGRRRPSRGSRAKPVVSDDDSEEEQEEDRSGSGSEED
- TEST_DETAILS: Cellular degradation assay, SMARCA4 (Table 1)
- Assay type: cell-based
Answer with a number only, understood to be in nM.

COMPOUND	NUMBER
CN(C(=O)C1(Oc2ccccc2Cl)CCN(c2cnnc(-c3ccccc3O)c2)CC1)C1CCN(C(=O)CN2CCC(c3ccc([C@@H]4CCC(=O)NC4=O)cc3)CC2)CC1 (racemic)	20.8

Entry under review: CC1(C)CC(NC(=O)C2(c3ccccc3)CCN(c3cnnc(-c4ccccc4O)c3)CC2)CCN1CC1CCN(c2ccc([C@H]3CCC(=O)NC3=O)cc2)CC1 (stereo partly drawn) . Reported DC50?
249

# repeat for O=C1CC[C@H](c2ccc(N3CCC4(CC3)CC(N[C@H]3CC[C@H](NC(=O)C5(c6ccccc6)CCN(c6cnnc(-c7ccccc7O)c6)CC5)CC3)CO4)cc2)C(=O)N1 (mixture of isomers)
70.3

Try this compound too: O=C1CC[C@@H](c2ccc(N3CCC(CN4CCC(NCC5(c6ccccc6)CCN(c6cnnc(-c7ccccc7O)c6)CC5)CC4)CC3)cc2)C(=O)N1
191

Queued: O=C1CC[C@H](c2ccc(N3CCC(CN4CC5(C4)CN(C(=O)C4(c6ccccc6)CCN(c6cnnc(-c7ccccc7O)c6)CC4)C5)CC3)cc2)C(=O)N1
5030

Now consider O=C1CC[C@H](c2ccc(N3CCC(CN4CCC5(CC4)CN(C(=O)C4(c6ccccc6)CCN(c6cnnc(-c7ccccc7O)c6)CC4)C5)CC3)nc2)C(=O)N1 and answer again.
15.6

* * *

- ASSAYED_TARGET: SMARCA2 (Homo sapiens)
- Construct: endogenous in cells
- TEST_DETAILS: SMARCA2 Cellular Degradation Assay (Western blot analysis on Jess platform)
- Assay type: cell-based
- TEST_PARAMETERS: ratio DC50 SMARCA4 / DC50 SMARCA2
This listing pairs compounds with measured Fold Selectivity SMARCA4/2.
The answer should be written as a number, with no unit following it.

COMPOUND	ASSAYED_TARGET	METRIC	NUMBER
O=C1CCC(c2ccc(OC3CCN(C(=O)C4(c5ccccc5)CCN(c5cnnc(-c6ccccc6O)c5)CC4)CC3)cc2)C(=O)N1 (racemic)	SMARCA2 (Homo sapiens)	Fold Selectivity SMARCA4/2	1

Query: Fold Selectivity SMARCA4/2; subject: O=C1CC[C@H](c2ccc(N3CCC(CN4CC5CCN(C(=O)C6(c7ccccc7)CCN(c7cnnc(-c8ccccc8O)c7)CC6)CC54)CC3)cc2)C(=O)N1 (some centres unmarked)
1

* * *

- ASSAYED_TARGET: SMARCA2 (Homo sapiens, UniProt P51531)
- Construct: endogenous in cells
- TEST_DETAILS: SMARCA2 Cellular Degradation Assay (Western blot analysis on Jess platform)
- Type: cell-based
- TEST_PARAMETERS: cellular degradation
Listing of recorded DC50 by entry.
Form entry: value (nM) — number only.

Known results for compounds:
COMPOUND	METRIC	UNIT_NAME	NUMBER
O=C1CC[C@H](c2ccc(N3CCC(CCN4CCC(S(=O)(=O)NCC5(c6ccccc6)CCN(c6cnnc(-c7ccccc7O)c6)CC5)CC4)CC3)cc2)C(=O)N1 (racemic)	DC50	nM	8.85
CN(C(=O)C1(c2ccc(F)cc2)CCN(c2cnnc(-c3ccccc3O)c2)CC1)C1CCN(CCC2CCN(c3ccc(C4CCC(=O)NC4=O)cc3)CC2)CC1 (racemic)	DC50	nM	8.79
CN(C(=O)C1(c2ccncc2)CCN(c2cnnc(-c3ccccc3O)c2)CC1)C1CCN(CCC2CCN(c3ccc(C4CCC(=O)NC4=O)c(F)c3)CC2)CC1 (racemic)	DC50	nM	2.18
O=C1CC[C@H](c2ccc(N3CCC(CN4CCC(NC(=O)C5(c6ccccn6)CCN(c6cnnc(-c7ccccc7O)c6)CC5)CC45CCC5)CC3)cc2)C(=O)N1 (some centres unmarked)	DC50	nM	2.76

What does the data say about its DC50? Entry: Cc1cc(C2(C(=O)N(C)C3CCN(CCC4CCN(c5ccc(C6CCC(=O)NC6=O)c(F)c5)CC4)CC3)CCN(c3cnnc(-c4ccccc4O)c3)CC2)on1 (racemic)
3.79
